- System: hyaluronan transport
- MEASUREMENT NOTES: Inhibition of hyaluronan transport (export) from human fibroblasts, discussion of Example 9
- CONDITION DESCRIPTION: human fibroblasts
ASSAY READOUT: inhibition of hyaluronan transport (words)

# MOLECULE, TARGET OF ASSAY, MEAS VALUE
records = [
    ("CN(Cc1cnc2nc(N)nc(N)c2n1)c1ccc(C(=O)N[C@@H](CCC(=O)O)C(=O)O)cc1 [methotrexate]", "hyaluronan transport", "did not inhibit"),
    ("CN(C)C(=O)CCSC(SCCC(=O)O)c1cccc(/C=C/c2ccc3ccc(Cl)cc3n2)c1 (stereo not shown)", "hyaluronan transport", "did not inhibit"),
]

----------
- Test system: human fibroblasts
- MEASUREMENT NOTES: Hyaluronan production of human fibroblasts (ELISA of culture medium)
- Type: cell-based
- CONDITION DESCRIPTION: Fibroblast; human fibroblasts, culture medium; read-out: HA production (IC50)
Reported IC50 values follow for various compounds

# COMPOUND, IC50
rows = [
    ("CN(C)C(=O)CCSC(SCCC(=O)O)c1cccc(/C=C/c2ccc3ccc(Cl)cc3n2)c1 (stereo not drawn)", "> 400 µM"),
    ("CN(Cc1cnc2nc(N)nc(N)c2n1)c1ccc(C(=O)N[C@@H](CCC(=O)O)C(=O)O)cc1 [methotrexate]", "~200 µM"),
    ("COc1ccc(Cl)cc1C(=O)NCCc1ccc(S(=O)(=O)NC(=O)NC2CCCCC2)cc1 [Glyburide]", "~400 µM"),
]
